Target: hPPARβ (Homo sapiens)
Sequence (Q03181 211-441 limits assumed): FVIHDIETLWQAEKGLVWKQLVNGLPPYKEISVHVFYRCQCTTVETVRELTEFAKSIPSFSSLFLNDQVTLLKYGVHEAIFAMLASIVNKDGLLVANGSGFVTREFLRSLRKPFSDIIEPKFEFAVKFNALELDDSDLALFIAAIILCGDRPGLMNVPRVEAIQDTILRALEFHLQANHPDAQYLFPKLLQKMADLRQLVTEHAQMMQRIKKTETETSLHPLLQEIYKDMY
Test: Test A: transient transfection assay in HepG2 cells, Gal4-PPAR chimeric receptor, luciferase reporter (hPPARβ)
Settings: HepG2 cells transfected with hPPARβ chimeric receptor; 24 hours incubation; compound 50 μM to 50 pM; read-out: Hep G2-hβ EC50
Text: 1. Test A. Transient Transfections Assay Using the HepG2 Hepatoma Cell Line. HepG2 cells were transiently transfected with an expression plasmids encoding hPPARα, hPPARβ or mPPARγ chimeric receptors and a reporter containing the yeast upstream activating sequence (UAS) upstream of the viral E1B promoter controlling a luciferase reporter gene. In addition, the plasmid pRSVβ-gal was used to control for transfection efficiency. […]
propertyMeasured: EC50 (nM)

Study these solved cases before continuing.
                                   molecule     experimentaltarget  readoutvalue
0  COc1cc2c(cc1SCc1sc(-c3ccc(C(F)(F)F)cc3)nc1C)CCC(CC(=O)O)O2 (centres unmarked) [Example 14]  hPPARβ (Homo sapiens)            19
1  Cc1nc(-c2ccc(C(F)(F)F)cc2)sc1CSc1ccc2c(c1)CCC(C)(CC(=O)O)O2 (centres unmarked) [Example 8]  hPPARβ (Homo sapiens)          3470
2  Cc1nc(-c2ccc(C(F)(F)F)cc2)sc1CSc1ccc2c(c1)CCN(CC(=O)O)C2 [Example 10]  hPPARβ (Homo sapiens)           111
3  Cc1nc(-c2ccc(C(F)(F)F)cc2)sc1CSc1ccc2c(c1)CCC(C(=O)O)O2 (centres unmarked) [Example 3]  hPPARβ (Homo sapiens)           762
4  Cc1nc(-c2ccc(C(F)(F)F)cc2)sc1CSc1ccc2c(c1)CC(CC(=O)O)CO2 (centres unmarked) [Example 18]  hPPARβ (Homo sapiens)           394

a = Cc1cc2c(cc1SCc1sc(-c3ccc(C(F)(F)F)cc3)nc1C)CCC(CC(=O)O)O2 (centres unmarked) [Example 15]
b = Cc1nc(-c2ccc(C(F)(F)F)cc2)sc1CSc1ccc2c(c1)CC(C(=O)O)CO2 (centres unmarked) [Example 17]
Please choose the item with the lower EC50 value from this pair: a and b Your choice should be expressed through its label. a

---

Item-by-item account of melting point

Study these solved cases before continuing.
                                   compound     readoutvalue
0  Cc1nc(-c2ccc(C(F)(F)F)cc2)sc1CSc1ccc2c(c1)CC(C(=O)O)CO2 (stereo not shown) [Example 17]    139 to 140 °C
1  COc1cc2on(CC(=O)O)c(=O)c2cc1SCc1sc(-c2ccc(C(F)(F)F)cc2)nc1C [Example 22]    245 to 247 °C
2  Cc1nc(-c2ccc(C(F)(F)F)cc2)sc1CSc1ccc2c(c1)CC(CC(=O)O)CO2 (stereo not shown) [Example 18]  149 to 149.5 °C

// moving on: another record for melting point
Per the record, Cc1nc(-c2ccc(C(F)(F)F)cc2)sc1CSc1ccc2oc(C(=O)O)cc2c1 [Example 6] has melting point of 207 to 209 °C
